test system: C3H/HeJ mice; test: In vivo toxicity (MTD / nontoxicity dose), intraperitoneal injection; settings: highest dose causing no severe irreversible toxicity
readout-type: In Vivo Toxicity Nontoxicity Dose (ip. mg/kg) in C3H/Hej mice
Lab book: enter the figure in mg/kg, no units written.

Input: For the compound COc1cc2c(c(OC)c1OC)-c1ccc(SC)c(=O)cc1C(NC(=O)COc1ccc(F)cc1)CC2 (centres unmarked) , give its reported In Vivo Toxicity Nontoxicity Dose (ip. mg/kg) in C3H/Hej mice.
Output: 150

Input: For the compound COc1cc2c(c(OC)c1OC)-c1ccc(SC)c(=O)cc1C(NC(=O)COc1cc(C)ccc1C)CC2 (centres unmarked) , give its reported In Vivo Toxicity Nontoxicity Dose (ip. mg/kg) in C3H/Hej mice.
Output: 100
